Assign IC50 to each entry below.
# System: WiDr
# EXPERIMENT_NOTES: In vitro antitumor activity against WiDr colon carcinoma tumor cell line was determined
# Assay type: functional
# ASSAY_CONTEXT: Homo sapiens, read-out: ID50 (the source's name)
Answer with the value and then the unit.

Hello, I am looking for reported IC50 with WiDr for CCCC(=O)OCc1c2c(n3c1C(OC(=O)CCC)CC3)C(=O)C(C)=C(OC)C2=O (stereo not given) . Could you help?
0.069 µg/mL

Hello, I am looking for reported IC50 with WiDr for COC1=C(C)C(=O)c2c(c(COC(C)=O)c3n2CCCC3OC(C)=O)C1=O (stereo not given) . Could you help?
0.171 µg/mL

Hello, I am looking for reported IC50 with WiDr for CC(=O)OCc1c2c(n3c1C(OC(C)=O)CC3)C(=O)C(C)=C(N1CC1)C2=O (stereo not given) . Could you help?
0.02 µg/mL

Hello, I am looking for reported IC50 with WiDr for COC1=C(C)C(=O)c2c(c(CO)c3n2CCCC3O)C1=O (stereo not given) . Could you help?
5.89 µg/mL

Hello, I am looking for reported IC50 with WiDr for CCNC(=O)OCc1c2c(n3c1C(O)CCC3)C(=O)C=C(OC)C2=O (stereo not given) . Could you help?
0.18 µg/mL

Hello, I am looking for reported IC50 with WiDr for COC1=CC(=O)c2c(c(COC(C)=O)c3n2CCCC3OC(C)=O)C1=O (stereo not given) . Could you help?
0.115 µg/mL

Hello, I am looking for reported IC50 with WiDr for CCOC(=S)SCc1c2c(n3c1CCC3)C(=O)C(C)=C(OC)C2=O . Could you help?
3.71 µg/mL

Hello, I am looking for reported IC50 with WiDr for CO[C@@]12[C@H](COC(N)=O)C3=C(C(=O)C(C)=C(N)C3=O)N1C[C@@H]1N[C@@H]12 . Could you help?
0.031 µg/mL

Hello, I am looking for reported IC50 with WiDr for COC1=C(C)C(=O)c2c(c(COC(C)=O)c3n2CCC3OC(C)=O)C1=O (stereo not given) . Could you help?
0.01 µg/mL

Hello, I am looking for reported IC50 with WiDr for CCNC(=O)OCc1c2c(n3c1C(O)CC3)C(=O)C(C)=C(OC)C2=O (stereo not given) . Could you help?
0.051 µg/mL
